Target: T1, human CD117 ectodomain (human, UniProt P10721 26-524, biotinylated (BirA co-expression) where captured on streptavidin biosensors)
T1 construct: extracellular domain; also called cKIT; full length AviTagged CD117 ectodomain; not shown: C-terminal AviTag or His tag
T1 sequence (P10721 26-524): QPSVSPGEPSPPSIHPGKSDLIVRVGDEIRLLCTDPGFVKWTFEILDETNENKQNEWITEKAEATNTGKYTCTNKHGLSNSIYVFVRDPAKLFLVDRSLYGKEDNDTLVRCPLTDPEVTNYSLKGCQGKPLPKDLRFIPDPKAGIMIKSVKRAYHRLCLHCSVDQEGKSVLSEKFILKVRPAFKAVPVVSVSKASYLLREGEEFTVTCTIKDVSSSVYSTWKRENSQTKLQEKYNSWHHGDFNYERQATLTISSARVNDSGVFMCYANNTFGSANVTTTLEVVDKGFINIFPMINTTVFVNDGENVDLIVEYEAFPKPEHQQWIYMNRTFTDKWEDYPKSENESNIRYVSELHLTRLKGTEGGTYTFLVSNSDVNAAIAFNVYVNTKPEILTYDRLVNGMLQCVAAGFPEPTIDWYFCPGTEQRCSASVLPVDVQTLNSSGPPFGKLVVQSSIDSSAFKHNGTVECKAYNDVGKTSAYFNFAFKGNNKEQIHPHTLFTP
Assay: ELISA, human CD117, bivalent Fc fusion
Provide the recorded pKd for the entries that follow.
Give bare numbers, as −log10 of the molar value.

Solved entries (count: 2):
[
  {
    "binder": "P-0056 (Fc fusion, the alignment instead labels 'P35/P57' and 'P32/P56'; also called P56; not shown: Fc fragment) QVQLVESGGGLVQAGGSLRLSCAASGGTFSIYPVGWFRQAPGKQREFVAAIGWSASGTYYGDSVEGRFTVSRDNARSTVYLRMSSLKPDDTAVYYCAAASGSNWRLGAIDEYDSWGQGTQVTVSS",
    "pKd": 9.44
  },
  {
    "binder": "P-0057 (Fc fusion, the alignment instead labels 'P35/P57' and 'P32/P56'; also called P57; not shown: Fc fragment) QVQLVESGGGLVQAGDSLRLSCAASGRTFSSYAMGWFRQAPGKEREFVASITSSGLVAYYGDSVEARFTISRDNAKNTVYLQMDSLKPEDTAVYYCAARQYVGSGSYYLKKEGGYEYWGPGTQVTVSS",
    "pKd": 9.68
  }
]

Look up and state reported pKd for P-0058 (Fc fusion, also called P58; bivalent form of P37; not shown: Fc fragment) QVQLVESGGGLVQAGDSLRLSCAVSGRTLSNYFMAWLRQAPGKEREFVAAIHWSLGSTYYQDPVKGRFTISRDKAKNTVYLQMNTLKPEDTATYICAAGQHLSGLGGSAWSIEGDYWGQGTQVTVSS
9.48
